target: Human IgG (HIgG) (human); experiment: batch adsorption isotherm, PBS pH 7.4, HWRGWV resin at 0.22 mmol/g, Langmuir fit
No end group written: not given here.
Quantity Name: Kd (nM)
Express it in nM; write the number only.

Q: Entry under review: HWRGWVA-{Toyopearl AF‑Amino‑650 resin} . Reported Kd?
Result: 2580
